- System: HepG2 cells
- Assay protocol: HepG2 cytotoxicity assay
- Condition set: HepG2; this manuscript
Attribute: HepG2 cytoxicity (Pb ODA, this manuscript)
Answer format: numeric, µM implied, no suffix.

1) CCOCn1c(-c2ccccc2)cc2c3c(N)nc(N)nc3ccc21 [TCMDC-137979]; 4.79
2) Cc1[nH]c(C)c(-c2ccc(Oc3ccc(F)cc3)cc2)c(=O)c1Cl [TCMDC-134728]; 56.23
3) CCc1cc2c3c(N)nc(N)nc3ccc2n1C(C)(C)C [TCMDC-137306]; 0.0017
4) CCN1CCN(CCNc2c3ccccc3nc3ccccc23)CC1.Cl [TCMDC-137545]; 11.75

Give its HepG2 cytoxicity (Pb ODA, this manuscript) value. Item: Nc1nc(N)c2c(ccc3c2ccn3CCCF)n1 [TCMDC-138623] 1.10

Give its HepG2 cytoxicity (Pb ODA, this manuscript) value. Item: O=C(Nc1nc(-c2ccccn2)cs1)c1ccc(S(=O)(=O)N2CCc3ccccc32)cc1 [TCMDC-125432] 4.22

Give its HepG2 cytoxicity (Pb ODA, this manuscript) value. Item: CC(C)(C)CNCC(C)(C)c1nc(-c2ccc(Cl)c(O)c2)c(-c2ccncc2)[nH]1.Cl [TCMDC-140549] 12.02

Give its HepG2 cytoxicity (Pb ODA, this manuscript) value. Item: Cc1[nH]c(C)c(-c2ccc(Oc3ccc(C(F)(F)F)cc3)cc2)c(=O)c1Br [TCMDC-137406] 5.75

----------
- Tested on: HepG2 cells
- Assay protocol: HepG2 cytotoxicity assay
- Condition set: unified HepG2 value across the three screens
Attribute: Unified cytotox

Use the examples below as a reference point.
1. Cc1ccc(C2=NNC3(S2)C(=O)N(C)c2ccccc23)cc1 (stereo not shown); 56.89 µM
2. CCCCC1=CC2C(=O)C(C(=O)OC)=CN=C2C=C1OCc1ccccc1 (stereo not shown); 100.00 µM
3. Cl.c1ccc(Oc2ccc(Nc3nncc4ccccc34)cc2)cc1; 100.00 µM
4. Cc1sc2ncnc(Sc3nc4ccccc4[nH]3)c2c1C; 100.00 µM
5. CCc1cc2c(Sc3nc4ccccc4[nH]3)ncnc2s1; 100.00 µM
6. COc1cccc(CCNCCCCCCNCCc2ccc(Cl)cc2)c1.Cl; 6.10 µM

Give its Unified cytotox value. Item: CCC1=C[C@@H]2CN(C1)Cc1c([nH]c3ccccc13)[C@@](C(=O)OC)(c1cc3c(cc1OC)N(C)[C@H]1[C@@](O)(C(=O)OC)[C@H](O)[C@]4(CC)C=CCN5CC[C@]31[C@@H]54)C2.O=S(=O)(O)O 41.21 µM

Give its Unified cytotox value. Item: CCOC(=O)c1c(CN2CCCC2)n(-c2ccccc2)c2cc(Br)c(O)cc12 71.61 µM

Give its Unified cytotox value. Item: CCN(CC)CCCNc1nccc(N(C)c2ccc(NC(=O)Nc3cc(C(F)(F)F)ccc3F)cc2)n1.O=C(O)C(F)(F)F 2.75 µM

Give its Unified cytotox value. Item: O=C(c1cccs1)N1CCN(c2ccc([N+](=O)[O-])c(NC3CC3)c2)CC1 100.00 µM

Give its Unified cytotox value. Item: Cc1ccc(Nc2nc(N/N=C/c3cccc(O)c3)nc(Nc3ccc([N+](=O)[O-])cc3)n2)cc1C 100.00 µM

----------
- System: P. berghei ookinete development
- Condition set: primary screen at 1 μM, replicate B
Attribute: % inhibition, Replicate B
Answer format: numeric, % implied, no suffix.

Use the examples below as a reference point.
1) Nc1nc(N)c2c(ccc3c2ccn3Cc2cccc(F)c2)n1; 58.69
2) Cc1cnc(C(=O)Nc2cccc(-c3ccc(-c4nc5cc(C(F)(F)F)ccc5[nH]4)s3)c2)cn1; 57.27
3) Clc1ccc(Nc2nc(-c3ccccn3)cs2)nc1; 71.58
4) Nc1nc(N)c2c(Cl)c(N3CCOCC3)ccc2n1; 26.39

Give its % inhibition, Replicate B value. Item: Cc1sc2ncnc(Sc3nc4ccccc4[nH]3)c2c1C 40.18

Give its % inhibition, Replicate B value. Item: Cc1[nH]c(C)c(-c2ccc(S(=O)(=O)c3ccc(Cl)cc3)cc2)c(=O)c1Cl 115.81

----------
- System: HepG2 cells
- Assay protocol: HepG2 cytotoxicity assay
- Condition set: read-out: HepG2 cytotoxicity assay IC50; dose response confirmation
Measure: pIC50
Here pIC50 is given on a logarithmic scale as minus log10 of the concentration in mol/L.

Use the examples below as a reference point.
1) Cc1nc2c(c([O-])c1Cl)-c1ccc(Oc3cccc(C(F)(F)F)c3)cc1C2=O.[Na+] [TCMDC-136021]; 4.40
2) Nc1nc(N)c2c(ccc3c2ccn3Cc2ccccn2)n1 [TCMDC-137980]; 8.12
3) N#Cc1ccc(CN2CCC(Oc3ccc(NC(=O)c4cccs4)cc3Cl)CC2)cc1.O=C(O)C(F)(F)F [TCMDC-133955]; 4.44
4) Cc1cc(SC(C)(C)C)cc2c(Cl)c(C(N)=O)cnc12 [TCMDC-135415]; 5.87
5) Cc1cc(F)ccc1-c1nc(NCC(O)CNCCc2ccccc2)nc2c1ccc(=O)n2-c1c(F)cccc1F.O=C(O)C(F)(F)F (stereo not shown) [TCMDC-141784]; 4.83

Give its pIC50 value. Item: Cl.O=C1CSc2ccc(CNC3CCN(CCc4c(Cl)cnc5ccc(F)cc45)CC3)nc2N1 [TCMDC-141960] 4.41

Give its pIC50 value. Item: C=CCn1ccc2c3c(N)nc(N)nc3ccc21 [TCMDC-137995] 6.00

Give its pIC50 value. Item: CC(C)(CN)c1nc(-c2ccc(Br)c(O)c2)c(-c2ccncc2)[nH]1.Cl [TCMDC-140680] 4.32

----------
Attribute: log10 of Unified cytotox
- System: HepG2 cells
- Assay protocol: HepG2 cytotoxicity assay
- Condition set: HepG2 cytotoxicity unified across screens; >25 set to 25.00
- Method: Briefly, HepG2 cells were seeded onto compound-treated 384 well plates at a density of 2,500 cells per well in Minimal Essential Medium (MEM) plus 10% fetal bovine serum and 1% non-essential amino acids solution (NEAA). […] Cell viability was then measured in a fluorescent plate reader and percent inhibition calculated with respect to positive and negative controls.
Field: value | Transform: log10 | Quantity: Unified cytotox | Unit: µM

1) CCn1c(-c2nonc2N)nc2c(-c3cccc(NC(=O)Nc4ccccc4OC)c3)ncc(OCCCN)c21.O=C(O)C(F)(F)F; 0.77
2) CN1CCN(CCCN(Cc2ccc(-c3ccc(CNC4CCCC4)cc3)cc2)C(=O)CCC2CCCC2)CC1.O=C(O)C(F)(F)F; 0.78
3) CCOc1ccc2ccccc2c1CNCCCCCCNCc1c(OCC)ccc2ccccc12.CS(=O)(=O)O; 0.24
4) O=C(CC1CCCC1)N(Cc1ccc(-c2ccc(CNC3Cc4ccccc4C3)cc2)cc1)CC1CCCCN1.O=C(O)C(F)(F)F (centres unmarked); 0.81

Which log10 of Unified cytotox is reported with HepG2 cells for this entry: COc1ccc(CNCCc2cccs2)cc1-c1cccc(S(=O)(=O)NCCN2CCCC2)c1.O=C(O)C(F)(F)F ? 1.06

Which log10 of Unified cytotox is reported with HepG2 cells for this entry: Fc1ccc2[nH]c(-c3ccc(-c4ccc(CNCCN5CCNCC5)cc4)s3)nc2c1.O=C(O)C(F)(F)F ? 1.40

Which log10 of Unified cytotox is reported with HepG2 cells for this entry: CC(C)CNCc1ccc(-c2cccc(CN(C(=O)NC3CCCCC3)C3CCN(Cc4ccccc4)CC3)c2)cc1.O=C(O)C(F)(F)F ? 0.26

Which log10 of Unified cytotox is reported with HepG2 cells for this entry: CN1CCN(c2nsc3ccc(-c4ccc(NC(=O)Nc5cc(C(F)(F)F)ccc5F)cc4)cc23)CC1.O=C(O)C(F)(F)F ? 0.81

Which log10 of Unified cytotox is reported with HepG2 cells for this entry: O=C(NCCCCN1CCC(c2c[nH]c3ccc(-c4ccccc4)cc23)CC1)c1ccc(-c2ccccc2)cc1.O=C(O)C(=O)O ? 0.97

Which log10 of Unified cytotox is reported with HepG2 cells for this entry: Cl.c1ccc2c(CNCCCN3CCN(CCCNCc4c5ccccc5cc5ccccc45)CC3)c3ccccc3cc2c1 ? 0.80

Which log10 of Unified cytotox is reported with HepG2 cells for this entry: CCN(CC)CCCNc1nccc(N2CCc3ncnc(Nc4ccc(OCc5cccc(F)c5)c(Cl)c4)c3C2)n1 ? 0.75

Which log10 of Unified cytotox is reported with HepG2 cells for this entry: CCCCCCC(N)c1ccc(OCCCOc2ccc(C(N)CCCCCC)cc2)cc1.Cl (centres unmarked) ? 0.28

Which log10 of Unified cytotox is reported with HepG2 cells for this entry: CS(=O)(=O)c1cccc(-c2cnc3[nH]cc(-c4cccc(CCN)c4)c3c2)c1 ? 1.40

Which log10 of Unified cytotox is reported with HepG2 cells for this entry: O=C(C1CC1c1ccccc1)N(Cc1ccc(-c2ccc(CNCCc3ccccc3)cc2)cc1)C1CCNCC1.O=C(O)C(F)(F)F (centres unmarked) ? 0.83

Which log10 of Unified cytotox is reported with HepG2 cells for this entry: CC(C)CNCc1cccc(-c2cccc(CN(CCCN3CCN(C)CC3)C(=O)/C=C/c3ccccc3)c2)c1.O=C(O)C(F)(F)F ? 0.87

Which log10 of Unified cytotox is reported with HepG2 cells for this entry: COC(=O)c1sc(-c2ccc(Cl)cc2)cc1N(CCCN1CCC(N2CCCCC2)CC1)S(=O)(=O)c1ccc(C)cc1 ? 0.64

Which log10 of Unified cytotox is reported with HepG2 cells for this entry: CCN(CC)CCOc1ccc(C(O)(C#CC(O)(c2ccc(OCCN(CC)CC)cc2)c2ccc([N+](=O)[O-])cc2)c2ccc([N+](=O)[O-])cc2)cc1 (centres unmarked) ? 0.79
